method: in vitro
test settings: human, hela cells, % viability

| compound | display unit | viability at 28.5 h, 10 µM |
| --- | --- | --- |
| CS(=O)(=O)NCC1(c2ccccc2)CCN(S(=O)(=O)c2ccc(N3CCOCC3)nc2)CC1 | % | 90 |
| Cn1cccc1C(=O)N[C@H]1C[C@@H]2C(=O)N[C@H]3CCN(C(=O)CC(C)(C)C)[C@@H]3C(=O)N2C1 | % | 111 |
| COc1ccc2[nH]cc(CCNC(=O)c3ccco3)c2c1 | % | 96.5 |
| O=C(O)CCC(=O)N1CCCC2(CCN(C(=O)Cc3c[nH]c4ccccc34)C2)C1 (stereo not shown) | % | 91.2 |
| CC(=O)Nc1ccc(CC(C(=O)O)c2ccccc2)cc1 (stereo not shown) | % | 98.8 |
| N=C(N)NCCc1ccc(Cl)cc1 [CBK024074G] | % | 105 |
| Cn1c(=O)c2[nH]c(CN3CCN(Cc4ccccc4)CC3)nc2n(C)c1=O | % | 86.3 |
| CC[C@H]1CCCCN1C(=O)c1sc2ncccc2c1Cl | % | 104 |
| CCOC(=O)Nc1ccc2c(c1)N(C(=O)CCN(C)C)c1ccccc1CC2 [CBK278193C] | % | 89.9 |
| O=c1[nH]nc2cc(SCc3ccc(Cl)cc3)ncn12 | % | 107 |
